molecular target: GNAQ/GNA11 (Homo sapiens) (UniProt P50148+P29992); experiment: Inhibition of Galphaq/11 (unknown origin) expressed in CHO-M1 cells at 10 uM preincubated for 1 hr followed by carbachol stimulation for 30 mins and measured after 1 hr by IP1 accumulation based HTRF assay relative to control; assay type: cell-based; settings: time 150.0 min
PROPERTY MEASURED: inhibition (%)

COMPOUND STRUCTURE | EXPERIMENTAL TARGET | UNIT | inhibition
CN1CCN(CCN2CCn3cc(-c4ccc5c(c4)CCCC5)nc3[C@@H]2CC2CCCCC2)CC1 | GNAQ/GNA11 (Homo sapiens) (UniProt P50148+P29992) | % | 8.9
CC(C)C[C@H](N)CN1CCn2cc(-c3ccc4c(c3)CCCC4)nc2[C@@H]1CC1CCCCC1 | GNAQ/GNA11 (Homo sapiens) (UniProt P50148+P29992) | % | 15.7
CC[C@H](C)[C@H](N)C(=O)N1CCn2cc(-c3ccc4c(c3)CCCC4)nc2[C@@H]1C(C)C | GNAQ/GNA11 (Homo sapiens) (UniProt P50148+P29992) | % | 9.4
N[C@@H](CSSC[C@H](N)C(=O)N1CCn2cc(-c3ccccc3)nc2[C@@H]1CC1CCCCC1)C(=O)N1CCn2cc(-c3ccccc3)nc2[C@@H]1CC1CCCCC1 | GNAQ/GNA11 (Homo sapiens) (UniProt P50148+P29992) | % | 10.9
CC[C@H](C)[C@H](N)C(=O)N1CCn2cc(-c3cccc(C#N)c3)nc2[C@@H]1CC1CCCCC1 | GNAQ/GNA11 (Homo sapiens) (UniProt P50148+P29992) | % | 20.8
CC[C@H](C)[C@H](N)C(=O)N1CCn2cc(-c3cccc(F)c3)nc2[C@@H]1CC1CCCCC1 | GNAQ/GNA11 (Homo sapiens) (UniProt P50148+P29992) | % | 17.8

[I] CC[C@H](C)[C@H](N)C(=O)N1CCn2cc(-c3ccccc3C)nc2[C@@H]1CC1CCCCC1
[II] CC[C@H](C)[C@H](N)C(=O)N1CCn2cc(-c3ccc4c(c3)CCCC4)nc2[C@H]1C(C)C
Req: // pick min by inhibition: I , II Lab note: record the label of whichever item you select.
Resp: II

* * *

assay: Antiproliferative activity against human MP41 cells assessed as reduction in cell viability measured after 72 hrs by CCK-8 method; format: functional, cell-based; settings: MP41, 72 h
PROPERTY MEASURED: IC50 (µM)
# value in µM; strip the unit string

// below: answered molecules
COMPOUND STRUCTURE | IC50, µM
CC[C@H](C)[C@H](N)C(=O)N1CCn2cc(-c3cccc(Cl)c3)nc2[C@@H]1CC1CCCCC1 | 11.2
CC[C@H](C)[C@H](N)C(=O)N1CCn2cc(-c3cccc(C#N)c3)nc2[C@@H]1CC1CCCCC1 | 9.9
CC[C@H](C)[C@H](N)C(=O)N1CCn2cc(-c3cccc(C(=O)OC)c3)nc2[C@@H]1CC1CCCCC1 | 16.2
CC[C@H](C)[C@H](N)CN1CCn2cc(-c3ccc4c(c3)CCCC4)nc2[C@@H]1CC1CCCCC1 | 17.4
CC[C@H](C)[C@H](N)C(=O)N1CCn2cc(-c3cccc(Br)c3)nc2[C@@H]1CC1CCCCC1 | 10.6
CC[C@H](C)[C@H](N)C(=O)N1CCn2cc(-c3cccc(C)c3C)nc2[C@@H]1CC1CCCCC1 | 12.8
CC[C@H](C)[C@H](N)C(=O)N1CCn2cc(-c3ccc(C)cc3)nc2[C@@H]1CC1CCCCC1 | 10.9
CC[C@H](C)[C@H](N)C(=O)N1CCn2cc(-c3cc(Cl)c(Cl)c(Cl)c3)nc2[C@@H]1CC1CCCCC1 | 7.8
CN1CCC[C@H]1CN1CCn2cc(-c3ccc4c(c3)CCCC4)nc2[C@@H]1CC1CCCCC1 | 15.2
CCC[C@H]1c2nc(-c3ccc4c(c3)CCCC4)cn2CCN1C(=O)[C@@H](N)[C@@H](C)CC | 18.4

Entry CC(C)C[C@H](N)CN1CCn2cc(-c3ccc4c(c3)CCCC4)nc2[C@@H]1CC1CCCCC1 , IC50 reported as 7.5

Entry CC[C@H](C)[C@H](N)C(=O)N1CCn2cc(-c3ccc(Cl)c(C)c3)nc2[C@@H]1CC1CCCCC1 , IC50 reported as 5.8
